Hi there, I'd appreciate the recorded IC50 for every entry that follows.
- system name: MAO (substrate PEA) (Rattus norvegicus)
- Sequence (P19643 whole entry): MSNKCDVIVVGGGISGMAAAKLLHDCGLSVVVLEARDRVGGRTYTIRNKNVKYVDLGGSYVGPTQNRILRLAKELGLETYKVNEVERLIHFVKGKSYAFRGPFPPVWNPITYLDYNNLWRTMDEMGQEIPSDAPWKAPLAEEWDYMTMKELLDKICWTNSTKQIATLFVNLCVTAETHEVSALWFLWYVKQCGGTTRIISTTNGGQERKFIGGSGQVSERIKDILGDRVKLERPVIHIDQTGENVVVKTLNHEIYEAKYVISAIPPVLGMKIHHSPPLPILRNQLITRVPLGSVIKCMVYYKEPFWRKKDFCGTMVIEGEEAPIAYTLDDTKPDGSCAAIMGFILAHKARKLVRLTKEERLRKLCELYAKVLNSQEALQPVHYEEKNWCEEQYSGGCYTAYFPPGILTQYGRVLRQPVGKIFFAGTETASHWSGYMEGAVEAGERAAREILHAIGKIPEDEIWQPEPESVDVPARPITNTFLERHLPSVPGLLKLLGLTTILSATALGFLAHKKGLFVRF

CC1=NCCn2c1cc1c2-c2ccc(C)cc2CC1 :: > 1 µM
CC1=NCCn2c1ccc2-c1ccc(Cl)cc1 :: 10 µM
CC1=NCCn2c1cc1c2-c2ccc(OC3CCCC3)cc2CC1 :: 0.007 µM

List reported IC50 for each of these compounds:
1. CC1NCCn2c1cc1c2-c2ccccc2CC1 (stereo not drawn)
2. CC1=NCCn2c1cc1c2-c2ccccc2CC1

RESULT:
["> 1 µM", "> 1 µM"]

Hi team, please reply with IC50 for each item in this list.
1. CC1=NCCn2c1ccc2-c1ccc(OC2CCCC2)cc1
2. CC1=NCCn2c1cc1c2-c2ccc(Cl)cc2CC1
3. CC1=NCCn2c1ccc2-c1ccccc1
4. CC1=NCCn2c1cc1c2-c2ccc(C3CCCCC3)cc2CC1

RESULT:
1: < 0.001 µM; 2: > 1 µM; 3: > 1 µM; 4: 0.16 µM

These data points were gathered from patent US5292732A.
